# IC50 values compiled below
Target: DNA dC->dU-editing enzyme APOBEC-3G (Homo sapiens, UniProt Q9HC16);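 further: Dose-response counterscreen measuring inhibition of APOBEC3G DNA deaminase activity, run while confirming APOBEC3A inhibitors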
Sequence (Q9HC16 whole entry): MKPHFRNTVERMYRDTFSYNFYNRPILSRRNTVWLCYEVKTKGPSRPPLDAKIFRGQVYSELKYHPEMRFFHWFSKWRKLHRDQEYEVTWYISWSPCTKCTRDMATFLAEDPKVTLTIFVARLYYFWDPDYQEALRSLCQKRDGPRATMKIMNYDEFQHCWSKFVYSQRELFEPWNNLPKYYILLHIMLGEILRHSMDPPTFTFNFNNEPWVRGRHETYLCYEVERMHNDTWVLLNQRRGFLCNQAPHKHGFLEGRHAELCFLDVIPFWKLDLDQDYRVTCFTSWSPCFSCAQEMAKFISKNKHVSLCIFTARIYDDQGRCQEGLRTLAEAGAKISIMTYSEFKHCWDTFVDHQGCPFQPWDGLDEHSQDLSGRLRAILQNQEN
Format: functional
Active and inactive are the calls of the source.

| molecule | IC50 |
| --- | --- |
| CC(C)C(NC(=O)COc1ccc2ccccc2c1)C(=O)N/N=C/C=C/c1ccccc1 (stereo unspecified) | 4.97 µM (active) |
| CC(=O)Nc1cc(-c2ccccc2)ccc1O | 16.5 µM (active) |
| CCCC[N+]12CCC(CC1)C(C(=O)c1cccs1)C2 (stereo unspecified) | 2.56 µM (active) |
| CCOCc1cnc(C)nc1NCC(=O)c1c(C)[nH]c2cc(C)ccc12 | 4.04 µM (active) |
| CC(c1ccccc1)C1OCC(C[N+]2(C)CCCCC2)O1 (stereo unspecified) | 2.72 µM (active) |
| CN1CCC(N(C)S(=O)(=O)c2ccc(NC(=O)COc3ccc(F)cc3)cc2)CC1 | 3.53 µM (active) |
